Target: T1, cCEACAM5, M. fascicularis CEACAM5 ECD (35-688) (Macaca fascicularis)
T1 construct: ECD followed by a 24 amino acid extension containing a His-Tag; also called cynomolgus CEACAM5; monkey CEACAM5
T1 chain: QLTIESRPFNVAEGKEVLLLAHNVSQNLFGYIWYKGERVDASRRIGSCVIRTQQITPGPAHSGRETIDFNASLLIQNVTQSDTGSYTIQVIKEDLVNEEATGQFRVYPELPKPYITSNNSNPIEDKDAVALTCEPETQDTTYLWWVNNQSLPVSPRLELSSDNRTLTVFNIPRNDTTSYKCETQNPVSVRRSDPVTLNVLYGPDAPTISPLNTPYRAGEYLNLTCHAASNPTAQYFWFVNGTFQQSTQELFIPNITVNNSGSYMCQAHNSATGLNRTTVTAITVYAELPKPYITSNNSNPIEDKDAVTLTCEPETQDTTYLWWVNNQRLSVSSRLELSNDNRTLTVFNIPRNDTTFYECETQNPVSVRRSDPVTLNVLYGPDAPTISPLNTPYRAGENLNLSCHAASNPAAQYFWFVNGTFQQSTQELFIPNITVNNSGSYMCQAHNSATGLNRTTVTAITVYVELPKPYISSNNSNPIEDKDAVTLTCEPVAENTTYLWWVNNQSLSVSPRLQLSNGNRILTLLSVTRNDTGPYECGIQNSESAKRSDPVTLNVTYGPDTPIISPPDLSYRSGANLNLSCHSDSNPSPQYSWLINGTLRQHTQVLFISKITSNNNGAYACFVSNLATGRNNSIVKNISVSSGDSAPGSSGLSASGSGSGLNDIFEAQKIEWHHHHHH
Test: ELISA, coated CEACAM5
Outcome label depends on Ratio c/h (EC50 on cCEACAM5 against EC50 on hCEACAM5) relative to 1: at/above gives 1, below gives -1.

# BINDER, ANSWER_LABEL
measured = [
    ("antibody MAb5 (antibody, IgG1, V domains shown, Murine monoclonal from hybridoma, IgG1, kappa) VH: ELQLVESGGVLVKPGGSLKLSCAASGFAFSSYDMSWVRQTPEKRLEWVTYINSGGGITYYPDTVKGRFTISRDNARNTLYLQMSSLKSEDTAIYYCTAHYFGSSGPFAYWGQGTLVTVSA VL: DIQMTQSPASLSASVGETVTITCRASENIYSYLAWYQQKQGKSPQLLVYNAKTLTEGVPSRFSGSGSGTQFSLKINSLQPEDFGSYYCQHHYGTPFTFGSGTKLEIK", 1),
]

Evaluate antibody MAb1 (antibody, IgG1, V domains shown) VH: EVMLVESGGGLVKPGGSLKLSCAASGFTFSSYAMSWVRQTPEKRLEWVATISSGGSYIYYLDSVKGRFTISRDNAKNTLYLQMSSLRSEDTAMYYCARPAYYGNPAMDYWGQGTSVTVSS VL: DILMTQSQKFMSTSVGDRVSVTCKASQNVGTNVAWYQQKPGQSPKPLIYSASYRYSGVPDRFTGSGSGTDFTLTISNVQSEDLAEYFCQQYNSYPLYTFGGGTKLEIK : Ratio c/h (EC50 on cCEACAM5 against EC50 on hCEACAM5) at minimum 1?
1

Evaluate antibody MAb2 (antibody, mouse IgG1, V domains shown, Murine IgG1, kappa; Rows are tied to the label as printed) VH: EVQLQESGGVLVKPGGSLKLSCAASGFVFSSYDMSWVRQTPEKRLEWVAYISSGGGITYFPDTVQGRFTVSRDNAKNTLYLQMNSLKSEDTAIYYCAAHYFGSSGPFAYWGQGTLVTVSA VL: DIQMTQSPASLSASVGETVTITCRASENIFSYLAWYQQKQGKSPQLLVYNTKTLAEGVPSRFSGSGSGTQFSLKINSLQPEDFGSYYCQHHYGTPFTFGSGTKLEIK : Ratio c/h (EC50 on cCEACAM5 against EC50 on hCEACAM5) at minimum 1?
-1

Evaluate antibody MAb3 (antibody, IgG1, V domains shown, Murine monoclonal from hybridoma, IgG1, kappa) VH: EVKLVESGGGLVKPGGSLTLPCAASGFTFSRYAMSWVRQTPEKRLEWVASISSGGDTYYPDSVKGRFTVSRDNARNILFLQMSSLRSEDTGMYYCARVNYYDSSFLDWWGQGTTLTVSS VL: DIVMTQSQRFMSTLEGDRVSVTCKASQNVGTNVAWYQQKPGQSPKALIYSASYRYSGVPDRFTGSGSGTDFTLTISNVQSEDLAEYFCQQYNNYPLYTFGGGTKLEIK : Ratio c/h (EC50 on cCEACAM5 against EC50 on hCEACAM5) at minimum 1?
1

Evaluate antibody MAb4 (antibody, IgG1, V domains shown, Murine monoclonal from hybridoma, IgG1, kappa) VH: EVQLVESGGGLVKPGGSLKLSCAASGFTFSSYDMSWVRQTPEKRLEWVAFISSYGGRTYYADTVKGRFTISRDNAKNTLYLQMSSLKSEDTAMFYCAAHYFGTSGPFAYWGQGTLVTVSA VL: DIQMTQSPASLSASVGETVTITCRASENIYSYFAWYQQKQGKSPQLLVYNAKILAEGVPSRFSGSGSGTQFSLKINSLQPEDFGTYYCQHHYGIPFTFGSGTKLELK : Ratio c/h (EC50 on cCEACAM5 against EC50 on hCEACAM5) at minimum 1?
-1
